Origin of measurements: patent US20240239775A1

# measurementTarget: FXR (Homo sapiens, UniProt Q96RI1)
# Construct: 5 μL of 20 nM FXR-LBD Complete Coregulator buffer G; purchased ThermoFisher PV4833
# Sequence (Q96RI1 262-486 limits assumed): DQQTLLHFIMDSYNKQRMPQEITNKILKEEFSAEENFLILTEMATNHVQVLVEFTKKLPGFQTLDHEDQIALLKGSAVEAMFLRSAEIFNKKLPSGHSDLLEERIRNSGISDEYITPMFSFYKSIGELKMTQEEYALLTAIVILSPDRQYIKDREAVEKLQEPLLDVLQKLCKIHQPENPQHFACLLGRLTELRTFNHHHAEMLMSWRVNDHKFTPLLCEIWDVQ
# experimentalProtocol: FXR antagonist screening by TR-FRET (LanthaScreen TR-FRET FXR co-activation assay kit)
# Assay type: biochemical
# assayContext: Table 1.1, FXR antagonistic activity; TR-FRET with CDCA; geometric means of at least two independent runs
assayEndpoint: IC50

CCOC(=O)c1oc2ccc(S(=O)(=O)N(CCc3ccccc3)c3ccc(N4CCN(Cc5ccccc5)CC4)cc3)cc2c1C = 50 to 100 µM
CCOC(=O)c1oc2ccc(S(=O)(=O)N(CCc3ccccc3)Cc3c(Cl)cccc3Cl)cc2c1C = 50 to 100 µM
CCOC(=O)c1oc2ccc(S(=O)(=O)N(CCc3ccccc3)Cc3ccc(F)cc3C(F)(F)F)cc2c1C = 50 to 100 µM

Input: State, in one line, measured IC50 of `Cc1c(C(=O)O)oc2ccc(S(=O)(=O)N(CCc3ccccc3)c3ccc(N4CCN(C(=O)OC(C)(C)C)CC4)c(C(F)(F)F)c3)cc12`
Output: 0.1 to 10 µM

Input: State, in one line, measured IC50 of `CCOC(=O)c1oc2ccc(S(=O)(=O)N(CCc3ccccc3)c3cccc(N4CCN(C)CC4)c3)cc2c1C`
Output: 50 to 100 µM
